target: Cytochrome P450 3A4 (Homo sapiens); experiment: Cytochrome panel assay with activity outcomes; settings: recombinant CYP, pro-luciferin dealkylation, luminescence, p450-cyp3a4; series mostly up to 57.1 µM
About 5,100 (32%) of roughly 16,000 compounds were called active. Another 25% or so got no clear call; they are omitted. Calls follow the shape of the dose curve; as a rule, active = well fitted curve in the direction sought with a large enough effect; inconclusive = small, poorly fitted or top-dose-only effect, or effect the other way; inactive = no such curve, though single readings can be large or run the other way. Some of the results follow.
Parameter call: string, one of active, inactive

Sample answers from the record:
O=C(Nc1ccc(Cl)cc1)OCc1cc(-c2ccccc2)on1 | inactive
CC1(C)Cc2c(sc3nc(-c4ccccc4)n(N)c(=O)c23)CO1 | inactive
O=C(/C=C/c1ccccc1)NC(NC(=S)Nc1ccc(Cl)cc1)C(Cl)(Cl)Cl (stereo not given) | active

Please find the next compound below.
q: What was the test verdict on `CCCCn1c(SCc2c(C)noc2C)nc2cc(S(N)(=O)=O)ccc21` ?
a: active

---

biological target: Cytochrome P450 3A4 (Homo sapiens) (UniProt P08684); assay: Cytochrome panel assay with activity outcomes; details: recombinant CYP, pro-luciferin dealkylation, luminescence, p450-cyp3a4; series mostly up to 57.1 µM
Sequence (P08684 whole entry, looked up): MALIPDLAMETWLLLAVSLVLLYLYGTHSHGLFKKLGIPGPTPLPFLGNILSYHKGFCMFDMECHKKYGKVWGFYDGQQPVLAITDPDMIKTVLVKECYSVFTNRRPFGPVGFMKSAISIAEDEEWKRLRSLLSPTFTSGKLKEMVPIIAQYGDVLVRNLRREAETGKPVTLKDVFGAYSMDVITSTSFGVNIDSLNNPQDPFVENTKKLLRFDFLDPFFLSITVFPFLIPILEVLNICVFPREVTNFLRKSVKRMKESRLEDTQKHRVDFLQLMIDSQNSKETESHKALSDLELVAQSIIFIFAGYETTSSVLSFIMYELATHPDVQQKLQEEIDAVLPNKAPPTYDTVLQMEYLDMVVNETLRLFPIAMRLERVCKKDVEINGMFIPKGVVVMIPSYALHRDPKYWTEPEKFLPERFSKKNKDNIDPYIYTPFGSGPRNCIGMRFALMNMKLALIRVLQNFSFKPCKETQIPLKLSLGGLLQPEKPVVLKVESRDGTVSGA
About 5,100 (32%) of roughly 16,000 compounds were called active. Inconclusive results (about 25%) are left out. Calls come from the whole dose curve; as a rule, active = well fitted curve in the direction sought with a large enough effect; inconclusive = small, poorly fitted or top-dose-only effect, or effect the other way; inactive = no such curve, though single readings can be large or run the other way. The list shows a part of the results.
Give your call using only these classes: active, inactive

As a guide, the following entries are already answered.
CCS(=O)(=O)c1ccc2c(c1)N(S(C)(=O)=O)CC(C(=O)NCCOC)O2 (configuration not stated) | inactive
CCOC(=O)[C@H](N)/C=C(\C)CP(=O)(O)O | inactive
O=C(c1cc(C(F)(F)F)cc(C(F)(F)F)c1)N1CCC[C@@]2(CCN(Cc3nccs3)C2)C1 | active
CC(C)(C)NC(=O)Cn1cnc([N+](=O)[O-])n1 | inactive
O=C(CCCn1cnc([N+](=O)[O-])n1)Nc1ccc(Cl)c(Cl)c1 | active

q: Dear all, I need the recorded test outcome for `O=C(O)c1sc2cc(C(F)(F)F)cnc2c1-c1ccccc1` , thank you.
a: inactive

q: Could you check what this test reported for `CN(C)C(=O)c1ccc(-c2cc(NCc3ccccc3)ncn2)cc1` ?
a: inactive

---

target: Cytochrome P450 3A4 (Homo sapiens); assay: Cytochrome panel assay with activity outcomes; settings: recombinant CYP, pro-luciferin dealkylation, luminescence, p450-cyp3a4; series mostly up to 57.1 µM; as to activity, negative = inhibition: % is scaled to controls: 0 for no effect and ±100 for the full control effect
About 5,100 (32%) of roughly 16,000 compounds were called active. Inconclusive results (about 25%) are left out. The list shows a part of the results.
// activity, negative = inhibition lookup, one value per entry

Recorded results for 5 compounds are shown here.
CO[C@@H]1COC(=O)[C@H](C)NC(=O)C/C=C\[C@@H](C)[C@@H](NS(=O)(=O)c2ccc(C)cc2)COC(=O)C/C=C\[C@@H]1C | 5.93% [at 11.4 µM] (inactive)
CO[C@H]1COC(=O)[C@H]2CCCN2C(=O)[C@@H](C)COC(=O)C/C=C\[C@@H]1C | -39.8% [at 11.4 µM] (inactive)
Cc1cc2c(c(=O)o1)[C@H](O)[C@H]1O[C@@H]1C2=O | -24.9% [at 11.4 µM] (inactive)
O=[N+]([O-])c1ccc(CSCc2ccc(Cl)cc2)cc1 | -19.8% [at 11.4 µM] (inactive)
Cc1ccc(S(=O)(=O)N2CCN(S(C)(=O)=O)C2)cc1 | -0.447% [at 11.4 µM] (inactive)

Now consider the entry below.
q: # get_value(readout='activity, negative = inhibition', item= `CO[C@@H]1COC(=O)C/C=C\[C@H](C)COC(=O)[C@H](C)NC(=O)C/C=C\[C@H]1C` )
a: -19.1% [at 11.4 µM] (inactive)
